# Experimental Target: T1, human CCR8 (human, UniProt P51685 1-355)
# T1 construct: the cells are named under assay; also called hCCR8
# Experiment Notes: flow cytometry, hCCR8 transfected CHOK1 cells
Output rule met for MFI fold change to isotype ctrl not less than 10 fold; output rule not met otherwise.

Does 3-11 (antibody, V domains shown) VH: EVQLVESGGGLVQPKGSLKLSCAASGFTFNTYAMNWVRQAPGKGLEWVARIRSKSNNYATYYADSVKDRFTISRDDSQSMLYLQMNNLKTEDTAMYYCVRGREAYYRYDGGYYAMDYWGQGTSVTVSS VL: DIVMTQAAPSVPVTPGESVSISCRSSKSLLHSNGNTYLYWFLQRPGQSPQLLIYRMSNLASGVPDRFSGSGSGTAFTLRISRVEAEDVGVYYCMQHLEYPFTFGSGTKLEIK have a reported MFI fold change to isotype ctrl of at least 10 fold?
rule met

Further, for 3-2 (antibody, V domains shown) VH: EVQLVESGGGLVKPGGSLKLSCAASGFTFSSYAMSWVRQTPEKRLEWVATINSGGSYTFYPDSVKGRFTISRDNAKNTLYLQMSSLRSVDTAIYYCARVSGYDERFAYWGQGTLVTVSA VL: DVLMTQTPLSLPVSLGAQASISCRSSQSIVHSNGNTYLEWYLQKPGQSPKLLIYKVSNRFSGVPDRFSGSGSGTDFTLKLSRVEAEDLGVYYCFQGSHVPPTFGGGTKLEIK ?
rule not met

Further, for 3-34 (antibody, V domains shown) VH: EVQLQQSGPELVKPGASVKISCKTSGYTFTEYTIHWVKQSHGKSLEWVGGINPDNGNTRYDQKFKGKATLTIDKSSSTAYMELRSLTSEDSAVYYCARVARSSGSGPYAMDYWGQGTSVTVSS VL: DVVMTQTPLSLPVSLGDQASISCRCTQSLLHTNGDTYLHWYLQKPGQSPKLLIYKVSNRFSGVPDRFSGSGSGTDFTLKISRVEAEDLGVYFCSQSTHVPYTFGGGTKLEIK ?
rule met

Further, for 3-32 (antibody, V domains shown) VH: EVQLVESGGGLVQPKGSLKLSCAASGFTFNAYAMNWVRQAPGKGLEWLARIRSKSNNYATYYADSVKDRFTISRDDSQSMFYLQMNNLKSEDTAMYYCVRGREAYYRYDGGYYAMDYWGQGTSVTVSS VL: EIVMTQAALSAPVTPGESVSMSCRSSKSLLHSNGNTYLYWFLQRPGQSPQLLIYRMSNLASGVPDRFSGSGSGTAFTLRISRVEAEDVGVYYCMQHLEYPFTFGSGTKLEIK ?
rule met

The reported numbers originate from patent US20260234276A1.
